test system: Escherichia coli isolates; assay: MIC of cephalosporins alone or with clavulanate/tazobactam; type: cell-based; conditions: AECO1078 (CTX-M-15), clavulanate 2:1, tazobactam 4 μg/mL
Endpoint Label: MIC

**Query** Entry CO/N=C(\C(=O)N[C@@H]1C(=O)N2C(C(=O)[O-])=C(C[N+]3(C)CCCC3)CS[C@H]12)c1csc(N)n1 [Cefepime, cefepime] has what MIC?
**Result** > 32 µg/mL

**Query** Entry Nc1nc(/C(=C/CC(=O)O)C(=O)N[C@@H]2C(=O)N3C(C(=O)O)=CCS[C@H]23)cs1 has what MIC?
**Result** 32 µg/mL

**Query** Entry C=CC1=C(C(=O)O)N2C(=O)[C@@H](NC(=O)/C(=N\OCC(=O)O)c3csc(N)n3)[C@H]2SC1 has what MIC?
**Result** > 64 µg/mL
